Data credit: paper PMC10542344

Would you kindly list pKd for each of these binders?
- target_or_system: human IL-17A (recombinant) (human, UniProt Q16552 24-155)
- Sequence (Q16552 24-155): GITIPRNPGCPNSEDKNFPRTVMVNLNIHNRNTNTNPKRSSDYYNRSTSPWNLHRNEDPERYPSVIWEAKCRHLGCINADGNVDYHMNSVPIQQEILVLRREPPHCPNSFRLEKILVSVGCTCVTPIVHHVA
- measurement_notes: SPR
One number for each entry, as −log10 of the molar value.

binder	reported_measurement
BDG11.007 (human IgG1) (antibody, V domains shown) VH: EVQLVQSGAEVKKPGESLKISCKGSGYSFTSYWIGWVRQMPGKGLEWMGIIYPSDSDTRYSPSFQGQVTISADKSISTAYLQWSSLKASDTAMYYCARYPNYGAFDIWGQGTMVTVSS VL: EIVLTQSPATLSLSPGERATLSCRASQSVWSYLAWYQQKPGQAPRLLIYDASNRATGIPARFSGSGSGTDFTLTISSLEPEDFAVYYCQQYFNWGWPFGQGTKLEIK	8.58

Report pKd for every entry below.
1. BDG11.003 (human IgG1) (antibody, V domains shown) VH: EVQLVQSGAEVKKPGESLKISCKGSGYSFTSYWIGWVRQMPGKGLEWMGIIYPSDSDTRYSPSFQGQVTISADKSISTAYLQWSSLKASDTAMYYCARYPNYGAFDIWGQGTMVTVSS VL: EIVLTQSPATLSLSPGERATLSCRASQSVFSYLAWYQQKPGQAPRLLIYDASNRATGIPARFSGSGSGTDFTLTISSLEPEDFAVYYCQQYFYWGWPFGQGTKLEIK
2. BDG11.006 (human IgG1) (antibody, V domains shown) VH: EVQLVQSGAEVKKPGESLKISCKGSGYSFTSYWIGWVRQMPGKGLEWMGIIYPSDSDTRYSPSFQGQVTISADKSISTAYLQWSSLKASDTAMYYCARYPNYGAFDIWGQGTMVTVSS VL: EIVLTQSPATLSLSPGERATLSCRASQSVWSYLAWYQQKPGQAPRLLIYDASNRATGIPARFSGSGSGTDFTLTISSLEPEDFAVYYCQQYFYNGWPFGQGTKLEIK

**Result**
9.03
9.16
